test-details: label from the status in PepcDB records
value-kind: protein production

- sequence-code: "MICTPKVGLNNQLTKVQFFMTKYNFLFKQQVIEFYLQNDKNSSLTRRHFQLAETTLERWINQFNHSGINGLALLGKKRNYSPEFKLNVIQAVKNGKFSAEAACLHFGIANSGVVSQWLQAFEKQGINGLIPKPKGRPTMKLQYPKMPPKPKTREEELELENLRLRAENAILKKLQELNQQKMQKKPLSLEHHHHHH"
  result: "failed"
- sequence-code: "MAASAHGSVWGPLRLGIPGLCCRRPPLGLYARMRRLPGPEVSGRSVAAASGPGAWGTDHYCLELLRKRDYEGYLCSLLLPAESRSSVFALRAFNVELARVKDSVSEKTIGLMRMQFWKKTVEDIYCDNPPHQPVAIELWKAVKRHNLTKRWLMKIVDEREKNLDDKAYRNIKELENYAENTQSSLLYLTLEILGIKDLHADHAASHIGKAQGIVTCLRATPYHGSRRKVFLPMDICMLHGVSQEDFLRRNQDKNVRDVIYDIASQAHLHLKHARSFHKTVPVKAFPAFLQTVSLEDFLKKIQRVDFDIFHPSLQQKNTLLPLYLYIQSWRKTY"
  result: "failed"

----------
test-details: label from the status in PepcDB records
value-kind: protein production

- sequence-code: "MPEKPTEDARFYGRRKGKPLRATRQRLLDTMLPALTLPLAGLGEGERLDPRGLFPRPVDQLWLEIGFGGGEHLVAQAAAHPEVGLIGSEVFAYGVGKALSQIDETGVDNIRLWPEDVRQVLPALPDGCLQRLFVLFPDPWPKRRHARRRMIQPARLDDFARLLADGGELRVASDDMGYVRWTLMHVTAHPAFRWTAQGPTDWRERPADWVETRYEAKALQAGRKPAYLIFRRRPRAADPGTLAEAPAGEGADNNP"
  result: "failed"
- sequence-code: "MATFSLGKHPHVELCDLLKLEGWSESGAQAKIAIAEGQVKVDGAVETRKRCKIVAGQTVSFAGHSVQVVA"
  result: "not failed"
- sequence-code: "MSLSQEMIKKWLDEEGFLRMEVPDENARFHYVVNYPEDHVIDIIQPAGKDDMILIACATSVSPEHQAGIRALSMEKRTEFIWKVRFTLNRFGVDFQLDHPENVLNSYLVTDEIFFDGLSKDRLISSIKNVFRAKLQVMWMIQERFGEERPEHDSMYVEGHHHHHH"
  result: "not failed"
- sequence-code: "MDKLNAISIFCKVIETQSFTLAAKQQNISVAMASKLVSQLEEHLKTRLLQRTTRKIMPTEAGMMYYQRCQGILLDLDEADSSITQLTSSLQGNLLISVPRDFGLLFIAPNLPTFMAKHPHLHIEVEFNDKKIDLLSEGYDLALRIGYMEDSSLVSRKIGTTTVHFAASPNYLETNGIPQTPDDLEHHNGLLYKNAMNQVNWVGSRINQTQRFKIQSKVVSNSGFALLNMAKAGLGIANLPKFILGRAFEKGELIEILPEYKQQKLEIHVVYPNRRHLPIKVTGISLNF"
  result: "failed"
- sequence-code: "MVVVCASHIQPAIICRFTWLRFLMEIILIRHGKPTSANNPVLNAVDFTKWVRRYNFSDVSTNSRPDSILDEYKSHYIVSSDLERAIHSASIYTGQSPELTSKLYREMEIPRYKFPLRFKAMTWVYINRAFWMLGLKGSFESYRQAKIRAELASDHLVELAREQDKVILFGHGYLNLHIRRSLIKKGWKLNSKSNGFWGISSLEGLEHHHHHH"
  result: "failed"
- sequence-code: "MGYFYVLLAAFLWGLIGPLSRMAFQEGLTPLTVAFYRALLSWIFFLAHAARTGGLRVAPRDLPVFPLFGLLGVALFYGAYQLAVLYGGAALASVLLYTAPAWVALLSWAFLREPPTARSWGAVALTLLGVGLLGLGGGSEVRFGVRAFLFGLASGFFYALHYLLGKLYLGRYATPTFFAYALPVAALALAPWAEFGPLTPRALGALLALSLFSTYGAYLAFYAGLRRLPATVASVVATLEPVVAVVLAYLLFGEVLSPLGYFGALLVILAVLLAVRR"
  result: "failed"
- sequence-code: "RNYNNPVVLCGFAGSTPTGVLAASYIVETLGMHQVAHLISQHIPPVAVFVGGKLRHPFRIYANNSNTVLVAMCEVPISSAHIYEISNTLMNWIDQVGASEIVIMEGSPANGIPEERPVFAVAEKPKLDKFKKAGIQPADSAIIAGMGGGILNECLVRKITGLSFITPTSVDIPDPGAVLSIIEAINKAYNLKIKTDLLEEQVKALDEQIKKIEEQYKELQEKQKEPQSMYG"
  result: "not failed"
- sequence-code: "MEKLTTLTGVAVPLRRSNVDTDQIIPAVFLKRVKKSGFDDALFYAWRRDPEFVLNKPEYKQGKILVAGPDFGIGSSREHAVWALHDYGFRVVISSRFADIFYGNTAKNGVLAAIMPQESIELLWKLLDEEPGREMTVSLEDRTVTCGDVTLPFEVNDYTRWRLMNGYDDIDLTLQHEDDIIAYEKMRAEKFPFKPKTLPVKREPEQPIESAREGEYPDWQGPLADRGII"
  result: "failed"

Entry MQNIAVHEASTLMRYISNAIGSIRDPQELFRTVTDKLRLVFEFDSAFIITLDRDRRFINVVFEMVRFDLPDTIQRKKRPVAGSWIESHLGDEGVSVVAIEGEMDRYPADFPVPRMLYDLGMRQVVLSPLRSGGKVIGFLNFVSREQKQWKESDKELLSTLSSPVAVALSSALAYEELRQREA , protein production reported as failed

Entry MKRSDKYTDDYIEQRYESQRPHYNTYYQPIGKPPKKKKSKRIFLKAIITILILLIIFFGVMYFISSRANVDDLKSIENKSDFVATENMPNYVKGAFISMEDERFYKHHGFDIKGTTRALFSTISDRDVQGGSTITQQVVKNYYYDNERSFTRKIKELFVARKVEKQYSKNQILSFYMNNIYYGDNQYTVEGAANHYFGVTVDKNNSNMSQISVLQSAILASKVNAPSVYDVNDMSNNYINRVKTNLEKMKQQNFISESQYQEAMSQLGN , protein production reported as not failed

Entry MGELIYGEVKKQTKDGFIIDLGDNAEAYLAREEMIAKEILRPKQRMNAILYSVNREGRGAQLLLSRARPEMLMALMKKEIPLEHHHHHH , protein production reported as failed

Entry MVRGDDQLNGLQGGKRALDILCVATERTVSAFAYEEIGETSTEGDKRRERLRRLRRLINYSLSTTMNSSLSKRLKIDECKNQDPEQNPNRVASSPSSCHLESKRPQKVVSNKPVRNRKPVIVTDEDRTPTEWLIDVMREVNGMDAKLIFVKVLPNSDVDELQTRLMMPWKQILDMDFLNEEELEKIDRHHKKISASDKGADVIVVNSKGLQRKLKLKRWDMTSTSNYVLGLGWNKVVTDNILQRGTRLRIWSFHSPDMLFFAFVLSDPDPAPTECLNLLAKLCEETTCLEALQEANRMSSLVSDTELDLELRL , protein production reported as failed

Entry HFLLPFAEIPEQFPASKAVLMEHFYRRMRKRFGYLMTADGKPEGGQWNFDADNRNKLKSPDLLQLPTPLCFDNPVASIKARIERHRIPSIGQVGESLLWPINRAQALSLLAHFCQICLPNFGRFQDAMTAQHPHRWSLYHSRLSFALNSKLLSPREVIEATISAYRAAQGQISLAQVEGFVRQILGWREYVRGMYWSN , protein production reported as failed
